B1: H2-Kb / Ed28 (parent complex)
chain 1: AQSVTQPDARVTVSEGASLQLRCKYSYFGTPYLFWYVQYPRQGLQLLLKYYPGDPVVQGVNGFEAEFSKSNSSFHLRKASVHWSDWAVYFCAVSPGSGGKLTLGAGTRLQVNL
chain 2: DSGVVQSPRHIIKEKGGRSVLTCIPISGHSNVVWYQQTLGKELKFLIQHYEKVERDKGFLPSRFSVQQFDDYHSEMNMSALELEDSAMYFCASSPRASDYTFGSGTRLLVI
chain 3: not shown
chain 4: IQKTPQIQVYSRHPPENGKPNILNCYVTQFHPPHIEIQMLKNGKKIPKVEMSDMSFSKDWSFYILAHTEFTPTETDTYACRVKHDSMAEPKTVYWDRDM
chain 5: SIINFEKL

variants of: B1; assay: % of reporter cells activated (NFAT-GFP), raw; further: test concentration or dose not given here

MUTATION LABEL: chain 5 L8R
ratio to parent: 0.915
//
MUTATION LABEL: chain 5 N4V
ratio to parent: 0.00909
//
MUTATION LABEL: chain 5 S1T
ratio to parent: 1.13
//
MUTATION LABEL: chain 5 N4F
ratio to parent: 0.0123
//
MUTATION LABEL: chain 5 I2K
ratio to parent: 0.837
//
MUTATION LABEL: chain 5 I2Y
ratio to parent: 0.58
//
MUTATION LABEL: chain 5 F5S
ratio to parent: 0.867
//
MUTATION LABEL: chain 5 L8C
ratio to parent: 0.616
//
MUTATION LABEL: chain 5 S1E
ratio to parent: 0.798
//
MUTATION LABEL: chain 5 S1Y
ratio to parent: 0.825
//
MUTATION LABEL: chain 5 F5E
ratio to parent: 0.483
//
MUTATION LABEL: chain 5 I2S
ratio to parent: 1.14
//
MUTATION LABEL: chain 5 N4I
ratio to parent: 0.167
//
MUTATION LABEL: chain 5 S1G
ratio to parent: 0.898
//
MUTATION LABEL: chain 5 E6T
ratio to parent: 0.0253
//
MUTATION LABEL: chain 5 E6M
ratio to parent: 0.0743
//
MUTATION LABEL: chain 5 I3P
ratio to parent: 0.898
//
MUTATION LABEL: chain 5 S1M
ratio to parent: 0.908
//
MUTATION LABEL: chain 5 I3T
ratio to parent: 1.31
//
MUTATION LABEL: chain 5 I2R
ratio to parent: 0.92
//
MUTATION LABEL: chain 5 I3H
ratio to parent: 1.24
//
MUTATION LABEL: chain 5 I2A
ratio to parent: 1.25
